study system: succinate dehydrogenase (complex II) (Rattus norvegicus, UniProt Q920L2)
Sequence (Q920L2 whole entry, looked up, one chain of several): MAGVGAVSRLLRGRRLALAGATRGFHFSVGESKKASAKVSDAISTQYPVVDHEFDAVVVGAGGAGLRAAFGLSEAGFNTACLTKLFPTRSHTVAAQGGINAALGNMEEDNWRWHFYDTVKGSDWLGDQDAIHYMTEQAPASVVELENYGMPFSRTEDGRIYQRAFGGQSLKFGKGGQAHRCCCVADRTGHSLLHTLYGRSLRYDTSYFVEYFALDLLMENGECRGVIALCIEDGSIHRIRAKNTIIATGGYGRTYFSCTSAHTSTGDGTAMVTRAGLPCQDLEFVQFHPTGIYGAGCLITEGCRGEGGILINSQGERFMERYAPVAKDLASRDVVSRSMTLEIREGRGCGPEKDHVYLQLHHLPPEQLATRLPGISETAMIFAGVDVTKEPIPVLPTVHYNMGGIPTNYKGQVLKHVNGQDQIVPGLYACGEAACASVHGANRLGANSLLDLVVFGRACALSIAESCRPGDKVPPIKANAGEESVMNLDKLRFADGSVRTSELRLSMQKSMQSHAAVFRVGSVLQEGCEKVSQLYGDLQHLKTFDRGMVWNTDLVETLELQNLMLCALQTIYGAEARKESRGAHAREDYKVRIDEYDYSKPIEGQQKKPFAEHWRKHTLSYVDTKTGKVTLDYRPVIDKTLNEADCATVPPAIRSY
Assay type: cell-based
measurement context: IC50 Complex II, Old
pIC50: −log10 of the molar value.

| smiles entry | pIC50 |
| --- | --- |
| O=C(O)CC[N+](=O)[O-] | 2.68 |
